Overview of reported pIC50 across a group of compounds:
TARGET SYSTEM: UniProtKB P06401
Sequence (P06401 whole entry, the tested form may be a part): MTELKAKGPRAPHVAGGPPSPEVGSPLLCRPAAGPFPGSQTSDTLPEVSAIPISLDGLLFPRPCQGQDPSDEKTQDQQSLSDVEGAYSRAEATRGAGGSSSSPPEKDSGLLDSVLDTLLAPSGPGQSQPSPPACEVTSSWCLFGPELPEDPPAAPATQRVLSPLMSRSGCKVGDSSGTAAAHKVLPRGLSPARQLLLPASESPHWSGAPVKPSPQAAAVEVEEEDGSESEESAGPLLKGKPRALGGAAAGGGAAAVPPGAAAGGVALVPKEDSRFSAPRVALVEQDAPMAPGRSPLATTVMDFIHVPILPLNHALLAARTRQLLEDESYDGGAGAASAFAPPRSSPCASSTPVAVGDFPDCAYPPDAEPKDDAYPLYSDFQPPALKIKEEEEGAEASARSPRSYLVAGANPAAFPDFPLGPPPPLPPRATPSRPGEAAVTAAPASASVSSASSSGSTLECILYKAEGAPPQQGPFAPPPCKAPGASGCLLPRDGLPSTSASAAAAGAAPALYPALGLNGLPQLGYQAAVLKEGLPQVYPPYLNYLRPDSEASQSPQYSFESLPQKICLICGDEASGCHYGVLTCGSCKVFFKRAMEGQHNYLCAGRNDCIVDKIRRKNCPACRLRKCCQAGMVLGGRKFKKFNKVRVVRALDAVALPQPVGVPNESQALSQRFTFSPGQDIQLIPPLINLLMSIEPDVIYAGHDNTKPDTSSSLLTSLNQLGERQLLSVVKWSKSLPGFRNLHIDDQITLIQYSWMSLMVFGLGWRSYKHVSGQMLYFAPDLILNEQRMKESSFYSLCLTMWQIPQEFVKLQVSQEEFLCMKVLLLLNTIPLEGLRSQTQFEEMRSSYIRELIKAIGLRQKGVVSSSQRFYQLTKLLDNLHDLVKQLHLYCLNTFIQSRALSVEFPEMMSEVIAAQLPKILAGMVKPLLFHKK
PROTOCOL: Antagonist activity at GAL4-fused human PR LBD (680 to 933 residues) expressed in CHO-K1 cells assessed as inhibition of progesterone-induced transactivation activity after 5 to 6 hrs by luciferase reporter gene assay
Assay type: cell-based
// scale note: pIC50 = -log10(conc_M); give the bare number

MOLECULE SMILES	TARGET SYSTEM	pIC50
CCOc1ncc(C)c2c1[C@H](c1ccc(C#N)cc1OC)C(C#N)=C(C)N2	UniProtKB P06401	5.38

For the next question, use this compound.
Report pIC50 for CCOc1nccc2c1[C@H](c1ccc(C#N)cc1OC)C(C#N)=C(C)N2 please.
5.27

====

TARGET SYSTEM: Mineralocorticoid receptor (Homo sapiens, UniProt P08235, C808S)
Sequence (P08235 whole entry C808S, the tested form may be a part): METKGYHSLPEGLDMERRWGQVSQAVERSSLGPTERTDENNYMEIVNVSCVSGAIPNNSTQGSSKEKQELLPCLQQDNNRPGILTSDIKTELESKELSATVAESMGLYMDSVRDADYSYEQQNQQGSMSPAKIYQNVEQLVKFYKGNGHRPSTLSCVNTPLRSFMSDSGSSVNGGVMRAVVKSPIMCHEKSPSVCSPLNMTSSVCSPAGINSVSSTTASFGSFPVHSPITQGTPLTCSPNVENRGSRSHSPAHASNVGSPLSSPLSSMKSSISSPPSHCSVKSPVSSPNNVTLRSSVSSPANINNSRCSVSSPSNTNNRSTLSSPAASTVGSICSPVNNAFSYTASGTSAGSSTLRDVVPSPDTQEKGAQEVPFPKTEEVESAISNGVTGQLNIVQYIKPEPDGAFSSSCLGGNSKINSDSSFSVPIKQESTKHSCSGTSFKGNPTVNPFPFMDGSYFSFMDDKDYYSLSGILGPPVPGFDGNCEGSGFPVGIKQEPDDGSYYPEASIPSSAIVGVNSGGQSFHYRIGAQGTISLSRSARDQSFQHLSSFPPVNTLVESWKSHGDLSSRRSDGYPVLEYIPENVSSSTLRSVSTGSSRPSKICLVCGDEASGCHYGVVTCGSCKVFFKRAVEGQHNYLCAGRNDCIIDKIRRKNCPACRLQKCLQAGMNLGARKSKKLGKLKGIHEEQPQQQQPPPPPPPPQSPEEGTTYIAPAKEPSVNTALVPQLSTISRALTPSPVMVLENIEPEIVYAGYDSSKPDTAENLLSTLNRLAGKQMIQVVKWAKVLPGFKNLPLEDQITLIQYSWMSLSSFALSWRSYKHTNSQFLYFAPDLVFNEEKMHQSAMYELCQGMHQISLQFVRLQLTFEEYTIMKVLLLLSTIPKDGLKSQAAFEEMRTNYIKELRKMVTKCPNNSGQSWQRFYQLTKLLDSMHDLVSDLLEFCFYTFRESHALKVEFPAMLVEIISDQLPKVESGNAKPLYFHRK
PROTOCOL: Binding affinity to N-terminal 6His-GST-tagged human MR LBD (727 to 984 residues) harboring C808S mutation expressed in Escherichia coli BL21DE3/corticosterone complex by AlphaScreen assay
MEASURE NAME: IC50
A bare number is not enough; add the unit after it.

SUBSTANCE	IC50
H-KENNALLRYLLDRDD-OH	1400 nM

For the next question, use this substance.
Notebook entry, Mineralocorticoid receptor (Homo sapiens, UniProt P08235, C808S) assay: IC50 of H-QEKHRILHKLLQNGN-OH = ?
4600 nM

====

Overview of reported IC50 across a group of compounds:
TARGET SYSTEM: Mineralocorticoid receptor (Homo sapiens, UniProt P08235)
Sequence (P08235 whole entry, the tested form may be a part): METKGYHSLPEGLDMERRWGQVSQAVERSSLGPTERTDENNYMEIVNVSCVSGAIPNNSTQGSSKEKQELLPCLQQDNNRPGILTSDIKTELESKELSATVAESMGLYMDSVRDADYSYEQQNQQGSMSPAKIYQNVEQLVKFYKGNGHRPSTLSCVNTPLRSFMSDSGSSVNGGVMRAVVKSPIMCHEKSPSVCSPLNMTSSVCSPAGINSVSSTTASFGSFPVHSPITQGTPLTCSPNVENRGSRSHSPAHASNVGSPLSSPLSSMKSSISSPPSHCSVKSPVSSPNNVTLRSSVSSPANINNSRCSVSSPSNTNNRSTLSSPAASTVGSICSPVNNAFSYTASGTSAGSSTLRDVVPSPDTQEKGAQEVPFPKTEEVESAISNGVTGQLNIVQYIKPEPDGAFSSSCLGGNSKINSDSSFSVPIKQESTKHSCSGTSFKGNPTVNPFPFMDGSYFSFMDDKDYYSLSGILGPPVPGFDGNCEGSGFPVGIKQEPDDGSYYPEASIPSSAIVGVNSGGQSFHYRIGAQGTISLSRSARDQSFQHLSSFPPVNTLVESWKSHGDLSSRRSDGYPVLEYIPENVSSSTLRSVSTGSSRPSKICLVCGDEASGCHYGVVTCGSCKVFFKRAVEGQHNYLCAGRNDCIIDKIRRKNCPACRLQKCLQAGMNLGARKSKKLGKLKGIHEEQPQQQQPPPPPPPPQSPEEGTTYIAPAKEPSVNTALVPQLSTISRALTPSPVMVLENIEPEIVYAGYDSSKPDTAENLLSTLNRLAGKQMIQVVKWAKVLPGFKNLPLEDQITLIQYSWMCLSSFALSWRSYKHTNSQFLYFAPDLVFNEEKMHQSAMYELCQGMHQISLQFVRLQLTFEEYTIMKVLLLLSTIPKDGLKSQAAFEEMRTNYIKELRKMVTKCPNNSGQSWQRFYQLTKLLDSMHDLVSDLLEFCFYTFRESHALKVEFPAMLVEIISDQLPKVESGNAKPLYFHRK
PROTOCOL: Antagonist activity at Gal4-fused human MR LBD (671 to 984 residues) expressed in African Green Monkey CV-1 cells assessed as inhibition of aldosterone-induced transactivation activity after 20 hrs by luciferase reporter gene assay
Type: cell-based

Here's what some known entries look like.
COMPOUND	ASSAY VALUE
Cc1c(C(=O)Nc2ccc(S(C)(=O)=O)cc2)cc(CCF)n1-c1ccc(F)cc1OC(F)F (single isomer, unassigned; atropisomer 2)	> 1 µM
Cc1c(C(=O)Nc2ccc(S(C)(=O)=O)cc2)cc([C@H](C)[C@H](C)O)n1-c1ccc(F)cc1C(F)(F)F (mixture of isomers)	0.0062 µM
Cc1c(C(=O)Nc2ccc(S(C)(=O)=O)cc2)cn([C@H](C)[C@H](C)O)c1-c1ccc(F)cc1C(F)(F)F (single isomer, unassigned; atropisomer 2)	> 1 µM
Cc1c(C(=O)Nc2ccc(S(C)(=O)=O)cc2)cc(C[C@H](C)O)n1-c1ccc(Cl)cc1C(F)(F)F (single isomer, unassigned; atropisomer 2)	> 1 µM
Cc1c(C(=O)Nc2ccc(S(C)(=O)=O)cc2)cc(CCO)n1-c1ccc(Cl)cc1C(F)(F)F (single isomer, unassigned; atropisomer 2)	> 1 µM

Report IC50 for Cc1c(C(=O)Nc2ccc(S(C)(=O)=O)cc2)cc(C[C@H](C)O)n1-c1ccc(Cl)cc1-c1ccc(F)cc1 (single isomer, unassigned; atropisomer 2) please.
> 1 µM

====

PROTOCOL: Half life in rat
Format: ADME
ASSAY SETUP: in vivo
MEASURE NAME: half-life (h)
Lab book: enter the figure in h, no units written.

COMPOUND	SCALE UNIT	half-life
CCC(O)C(CC)(c1ccc(C(F)(F)F)cc1)n1ncc2c(NS(C)(=O)=O)cccc21 (configuration not stated)	h	5.3

For the next question, use this compound.
Report half-life for CCC(c1ccc(C(F)(F)F)cc1)(C(O)C(F)F)n1ncc2c(NS(C)(=O)=O)cccc21 (configuration not stated) please.
9.9
